Record form. Attribute: pIC50. Fill in for each entry.
study_system: FPTase (H-Ras substrate) (UniProt P29702+P49355)
assay_procedure: in vitro FTase Inhibition Assay, H-Ras as substrate for farnesylation
measurement_setup: H-Ras used as substrate for farnesylation
pIC50: −log10 of the molar value.

Entry CCCCOC(=O)Nc1ccc(C)c(C#CCCCC2(S(=O)(=O)c3ccc(OC)cc3)SC(=O)NC2=O)c1 (stereo not drawn) [Example 181] : reported pIC50 = ?
7.49 to 8.00

Entry Cc1ccc(C)c(C#CCCCC2(S(=O)(=O)c3ccc(I)cc3)SC(=O)NC2=O)c1 (stereo not drawn) [Example 134] : reported pIC50 = ?
6.07 to 7.85

Entry COc1ccc(S(=O)(=O)C2(CCCC#Cc3cc(C)ccc3C)SC(=O)NC2=O)cc1 (stereo not drawn) [Example 135] : reported pIC50 = ?
7.49 to 7.70

Entry COC(=O)Nc1ccc(C)c(C#CCCCC2(S(=O)(=O)c3ccc(OC)cc3)SC(=O)NC2=O)c1 (stereo not drawn) [Example 178] : reported pIC50 = ?
7.49 to 7.77

Entry COc1ccc(S(=O)(=O)C2(CCCC#Cc3cc(NC(=O)OC(C)C)ccc3C)SC(=O)NC2=O)cc1 (stereo not drawn) [Example 179] : reported pIC50 = ?
7.49 to 8.70

Entry O=C1NC(=O)C(CCCC#Cc2cccc([N+](=O)[O-])c2)(S(=O)(=O)c2ccc(Oc3ccccc3)cc2)S1 (stereo not drawn) [Example 119] : reported pIC50 = ?
6.85 to 6.89

Entry O=C1NC(=O)C(CCCC#Cc2cc(Cl)ccc2Cl)(S(=O)(=O)c2ccc(Oc3ccncc3)cc2)S1 (stereo not drawn) [Example 116] : reported pIC50 = ?
8.00 to 8.30

Entry COc1ccc(S(=O)(=O)C2(CCCC#Cc3cc(NC(=O)OCC(C)C)ccc3C)SC(=O)N(C(=O)OCC(C)C)C2=O)cc1 (stereo not drawn) [Example 232] : reported pIC50 = ?
8.00 to 8.30

Entry O=C1NC(=O)C(CCCC#Cc2ccc(Cl)cc2)(S(=O)(=O)c2ccc(F)cc2)S1 (stereo not drawn) [Example 105] : reported pIC50 = ?
6.82 to 7.30

These measurements were taken from patent US6784184B2.
